Molecular target: Siderocalin (LCN2), rLCN2-W79A (Homo sapiens, UniProt P80188, W99A)
Construct: recombinant human LCN2 (rLCN2) without a signal peptide fragment
Sequence (P80188 21-198 W99A): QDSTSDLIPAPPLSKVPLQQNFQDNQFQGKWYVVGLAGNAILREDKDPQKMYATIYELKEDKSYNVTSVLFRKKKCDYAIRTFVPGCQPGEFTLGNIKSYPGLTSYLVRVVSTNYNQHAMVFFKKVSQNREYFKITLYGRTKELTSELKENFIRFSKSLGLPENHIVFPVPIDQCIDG
Assay: ITC
Result type: Kd (nM)
Express it in nM; write the number only.

[ask] Looking for the measured Kd of O=C(N[C@H]1COC(=O)[C@@H](NC(=O)c2cccc(O)c2[O-])COC(=O)[C@@H](NC(=O)c2cccc(O)c2[O-])COC1=O)c1cccc(O)c1[O-].[Fe+3] [ferric enterobactin] , can you help?
[reply] 250

----------
Target: Siderocalin (LCN2) (Homo sapiens, UniProt P80188)
Construct: recombinant human LCN2 (rLCN2) without a signal peptide fragment
Sequence (P80188 21-198): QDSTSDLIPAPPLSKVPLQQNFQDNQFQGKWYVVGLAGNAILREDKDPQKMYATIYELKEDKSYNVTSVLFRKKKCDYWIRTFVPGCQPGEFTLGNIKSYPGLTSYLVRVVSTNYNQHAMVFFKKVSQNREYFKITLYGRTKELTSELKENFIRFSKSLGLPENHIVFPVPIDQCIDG
Assay: ITC ([…], n=[…]); UV cross-linking with c-di-[…]GMP and cold competition
Format: binding
Result type: pKd
Reminder that pKd is minus the log10 of a molar concentration.

[ask] Record request: pKd value, item `Nc1nc2c(ncn2[C@@H]2O[C@@H]3COP(=O)(O)O[C@H]4[C@@H](O)[C@H](n5cnc6c(=O)[nH]c(N)nc65)O[C@@H]4COP(=O)(O)O[C@H]3[C@H]2O)c(=O)[nH]1`
[reply] 5.79

----------
Molecular target: Siderocalin (LCN2) (Homo sapiens, UniProt P80188)
Construct: recombinant human LCN2 (rLCN2) without a signal peptide fragment
Experiment: ITC; competition with c-di-[…]GMP cross-linking
Assay type: binding
Result type: pKd
Lab note: report pKd as minus log10 of the concentration in molar units, number only.

[ask] Field: pKd (Siderocalin (LCN2) (Homo sapiens, UniProt P80188)). Entry: O=C(N[C@H]1COC(=O)[C@@H](NC(=O)c2cccc(O)c2[O-])COC(=O)[C@@H](NC(=O)c2cccc(O)c2[O-])COC1=O)c1cccc(O)c1[O-].[Fe+3] [ferric enterobactin]
[reply] 6.62

This collection of values is drawn from paper PMC4595737.
